# credit: patent US20050107289A1

- Tested on: murine red blood cells
- ASSAY DETAILS: Red blood cell hemolysis
- Type: cell-based, mouse
Non-standard residues stand in square brackets, D forms with d. Residues, ends and D or L forms follow the SMILES beside them.
Listed here: items and their measured RBC Hemolysis (HD50).
Number only, please.

Known results for compounds:
[
  {
    "COMPOUND": "CC(C)C[C@H]1NC(=O)[C@H](CCCCN)NC(=O)[C@@H](CC(C)C)NC(=O)[C@H](Cc2c[nH]c3ccccc23)NC(=O)[C@@H](CC(C)C)NC(=O)[C@H](Cc2c[nH]c3ccccc23)NC(=O)[C@@H](CC(C)C)NC(=O)[C@H](Cc2c[nH]c3ccccc23)NC1=O [SEQ ID NO:41, [KLWLWLWL]] (cyclo(K[dL]W[dL]W[dL]W[dL]))",
    "VALUE KIND": "RBC Hemolysis (HD50)",
    "MEASUREMENT": 30
  },
  {
    "COMPOUND": "CC(C)C[C@@H]1NC(=O)[C@@H](Cc2c[nH]c3ccccc23)NC(=O)[C@H](CCCCN)NC(=O)[C@@H](CO)NC(=O)[C@H](CO)NC(=O)[C@@H](CO)NC(=O)[C@H](CCCCN)NC(=O)[C@@H](Cc2c[nH]c3ccccc23)NC1=O [SEQ ID NO:93, [KSSSKWLW]] (cyclo(K[dS]S[dS]K[dW]L[dW]))",
    "VALUE KIND": "RBC Hemolysis (HD50)",
    "MEASUREMENT": 175
  }
]

QUERY: Kindly indicate its recorded RBC Hemolysis (HD50). Item: CC(C)C[C@H]1NC(=O)[C@H](Cc2c[nH]c3ccccc23)NC(=O)[C@@H](CO)NC(=O)[C@H](CCCCN)NC(=O)[C@@H](CO)NC(=O)[C@H](Cc2c[nH]c3ccccc23)NC(=O)[C@@H](CC(C)C)NC(=O)[C@H](Cc2c[nH]c3ccccc23)NC1=O [SEQ ID NO:5] (cyclo(K[dS]W[dL]W[dL]W[dS]))
RESULT: 30

----------
- Tested on: S. aureus MRSA (ATCC 33591)
- ASSAY DETAILS: Mouse peritonitis model, MRSA protection
- Type: in vivo, mice
Non-standard residues stand in square brackets, D forms with d. Residues, ends and D or L forms follow the SMILES beside them.
VALUE KIND: PD50 S. aureus MRSA infection
Express your answer as a number followed by its unit.

Reference set, count: 2
[
  {
    "COMPOUND": "CC(C)C[C@H]1NC(=O)[C@H](Cc2c[nH]c3ccccc23)NC(=O)[C@@H](CCCCN)NC(=O)[C@H](CCCNC(=N)N)NC(=O)[C@@H](CCCNC(=N)N)NC(=O)[C@H](Cc2c[nH]c3ccccc23)NC(=O)[C@@H](CC(C)C)NC(=O)[C@H](Cc2c[nH]c3ccccc23)NC1=O [SEQ ID NO:18] (cyclo([dR]R[dK]W[dL]W[dL]W))",
    "VALUE KIND": "PD50 S. aureus MRSA infection",
    "MEASUREMENT": "8 mg/kg"
  },
  {
    "COMPOUND": "CC(C)C[C@H]1NC(=O)[C@H](CCCCN)NC(=O)[C@@H](CCCCN)NC(=O)[C@H](Cc2c[nH]c3ccccc23)NC(=O)[C@@H](CC(C)C)NC(=O)[C@H](Cc2c[nH]c3ccccc23)NC1=O [SEQ ID NO:26, cyclo-(D-Lys-Lys-D-Leu-Trp-D-Leu-Trp)] (cyclo(K[dL]W[dL]W[dK]))",
    "VALUE KIND": "PD50 S. aureus MRSA infection",
    "MEASUREMENT": "15 mg/kg"
  }
]

QUERY: Could you please provide reported PD50 S. aureus MRSA infection for CC(C)C[C@H]1NC(=O)[C@H](Cc2c[nH]c3ccccc23)NC(=O)[C@@H](CCCCN)NC(=O)[C@H](CCCCN)NC(=O)[C@@H](CCCCN)NC(=O)[C@H](Cc2c[nH]c3ccccc23)NC(=O)[C@@H](CC(C)C)NC(=O)[C@H](Cc2c[nH]c3ccccc23)NC1=O [SEQ ID NO:17] (cyclo([dK]K[dK]W[dL]W[dL]W)) ? Thanks!
RESULT: 7 mg/kg
